Cited source for all entries: PubChem BioAssay (NCI)

Test system: HOP-92 NSCLC
TEST_SUMMARY: NCI tumour cell line growth inhibition, 48 h; in the data active = GI50 below about 0.43 µM; inactive = the rest
Write down one outcome, taken from t (active), f (inactive)

Study these solved cases before continuing.
| COMPOUND | CATEGORY_LABEL |
| --- | --- |
| O=C1c2cccnc2C(=O)c2c1c(C(=O)NCCCN1CCCCC1)c1ccccn21 | f |
| CCOC(=O)C1=C(C)N(c2ccc(Cl)cc2)[C@]2(C#N)C(O)=C(Cl)C(Cl)=C(O)[C@]12C#N | f |
| CC1=C2[C@@H](CC1)[C@]1(C)O[C@@](c3ccccc3)(C[C@H]1OC(=O)CO)[C@H]2OC(=O)/C=C/c1ccccc1 | f |
| CC(=O)OC12C=C(C)C(C(C)C1)C1C(=O)N(CCN3CCOCC3)C(=O)C12 (stereo not drawn) | f |
| O=C1c2c(c3c4ccccc4[nH]c3c3ccc4ccccc4c23)C(=O)N1CCN1CCNCC1 | f |
| Cc1cc(S(=O)(=O)/N=C(/N)Nc2ccccc2O)c(SCc2ccccc2)cc1Cl | f |
| O=c1[nH]c(=O)n(C2CC(O)C(COP(=O)(OCc3ccc([N+](=O)[O-])o3)N(CCCCCl)CC(O)CO)O2)cc1F (stereo not drawn) | t |
| C1CCC([PH+](C2CCCCC2)C2CCCCC2[PH+](C2CCCCC2)C2CCCCC2)CC1.[Au].[CH-]1CCCCC1CC1CCCC[N-]1 (stereo not drawn) | t |
| O=C1NC(=O)C(N2C(=O)c3ccccc3C2=O)CC1O (stereo not drawn) | f |
| CC(=O)/C=C/c1cn(C(=O)OC(C)(C)C)c2ccc(Br)cc12 | f |

Inquiry: Hi team, can someone confirm the assay call for `O=C1C(=C([O-])c2ccccc2)C(=O)c2ccccc21.O=C1C(=C([O-])c2ccccc2)C(=O)c2ccccc21.[Fe+2]` ?
Reply text: f

Inquiry: Hi team, can someone confirm the assay call for `O=C(Nc1ccc(OCc2nnc(-c3ccc(Cl)cc3)o2)c(F)c1)Nc1ccc(Cl)c(C(F)(F)F)c1` ?
Reply text: f

Inquiry: Hi team, can someone confirm the assay call for `O=S(=O)(c1ccc(Cl)cc1)C(Cl)(Cl)Cl` ?
Reply text: f

Inquiry: Hi team, can someone confirm the assay call for `CNCCCNCCCCNCCCN1C(=O)c2ccc3c4c(ccc(c24)C1=O)C(=O)N(CCCNCc1ccccc1OC)C3=O` ?
Reply text: f

Inquiry: Hi team, can someone confirm the assay call for O=C1OCC2=C1C(c1ccc(Cl)c(Cl)c1)c1cc3c(cc1N2CCO)OCCO3 (stereo not drawn) ?
Reply text: t

Inquiry: Hi team, can someone confirm the assay call for `COc1cc2nc(N3CCCC3)nc(NCCc3ccccc3)c2cc1OC` ?
Reply text: f

* * *

log10 of TGI for assorted compounds
Test system: SK-MEL-5 melanoma
TEST_SUMMARY: NCI tumour cell line growth inhibition, 48 h
Please note: log10 values; quantity TGI; unit µM.

| COMPOUND | ASSAY_SYSTEM | log10 of TGI |
| --- | --- | --- |
| COC1C=COC2(C)Oc3c(C)c(O)c4c(c3C2=O)/C(=N/C2CCC(O)OC2C)C=C(NC(=O)/C(C)=C\C(=O)C2CC2C(O)C(C)C(O)C(C)C(OC(C)=O)C1C)C4=O (stereo not given) | SK-MEL-5 melanoma | 0.70 |

Inquiry: log10 of TGI for `CN1c2ccccc2C(=O)NC12CCN(CCCC(=O)c1ccc(F)cc1)CC2` ?
Reply text: 1.90

Inquiry: log10 of TGI for COc1nc(=O)n(COC(CO)CN2C(=O)c3ccccc3C2=O)cc1Cc1cccc(OCc2ccccc2)c1 (stereo not given) ?
Reply text: 1.48

Inquiry: log10 of TGI for `Cc1ccc(-c2nnc(-c3nn(-c4ccccc4)c4nc5ccccc5nc34)o2)cc1` ?
Reply text: 1.41

Inquiry: log10 of TGI for `Cc1ccc(/C=C/C(=O)C(C)(C)CN2CCCCC2)cc1` ?
Reply text: 0.92

Inquiry: log10 of TGI for `CCCCn1c(N)c(-c2nc3ccccc3o2)sc1=S` ?
Reply text: 1.54
